Catalogue of IC50 readings, one per entry.
- Target desc: BTK (Homo sapiens (Human), UniProt Q06187)
- Sequence (Q06187 whole entry, species assumed): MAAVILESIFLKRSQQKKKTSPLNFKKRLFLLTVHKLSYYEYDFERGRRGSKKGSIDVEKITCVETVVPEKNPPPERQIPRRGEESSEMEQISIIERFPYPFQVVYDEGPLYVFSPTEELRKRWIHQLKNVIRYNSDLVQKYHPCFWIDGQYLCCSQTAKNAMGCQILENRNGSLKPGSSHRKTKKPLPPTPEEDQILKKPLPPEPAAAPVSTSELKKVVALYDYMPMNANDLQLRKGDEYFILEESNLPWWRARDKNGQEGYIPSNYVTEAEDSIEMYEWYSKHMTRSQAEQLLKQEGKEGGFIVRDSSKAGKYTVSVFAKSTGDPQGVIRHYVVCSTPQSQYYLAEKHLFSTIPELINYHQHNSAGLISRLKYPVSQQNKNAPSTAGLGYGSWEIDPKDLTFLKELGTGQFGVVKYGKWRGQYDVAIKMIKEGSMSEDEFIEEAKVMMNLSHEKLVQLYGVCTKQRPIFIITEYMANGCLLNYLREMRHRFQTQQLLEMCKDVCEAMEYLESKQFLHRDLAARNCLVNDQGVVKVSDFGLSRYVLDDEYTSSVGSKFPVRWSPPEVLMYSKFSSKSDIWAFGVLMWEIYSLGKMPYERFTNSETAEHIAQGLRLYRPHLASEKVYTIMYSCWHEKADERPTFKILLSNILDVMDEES
- Assay remarks: IC50 against BTK
- Assay type: biochemical

>  <Molecule>
C=CC(=O)N1CCN(C(=O)c2cc(Sc3cnc(NC(=O)C4CC4)s3)c(C)cc2OC)C[C@H]1CC

>  <Reading>
1000 to 10000 nM

$$$$
>  <Molecule>
C=CC(=O)N1CCN(C(=O)c2cc(Sc3cnc(NC4CC4)s3)c(C)cc2OC)CC1

>  <Reading>
≥ 10000 nM

$$$$
>  <Molecule>
C=CC(=O)N1CCN(C(=O)c2cc(Sc3cnc(NC(=O)C4CCC4)s3)c(C)cc2OC)CC1

>  <Reading>
1000 to 10000 nM

$$$$
>  <Molecule>
C=CC(=O)N1CCN(C(=O)c2cc(Sc3cnc(Nc4ccccn4)s3)c(C)cc2OC)C[C@H]1C#N

>  <Reading>
< 10 nM

$$$$

Q: Request: IC50, test system BTK (Homo sapiens (Human), UniProt Q06187), entry "C=CC(=O)N1CCN(C(=O)c2cc(Sc3cnc(NC(=O)CC)s3)c(C)cc2OC)[C@@H](C)C1"
Ans: 100 to 1000 nM

Q: Request: IC50, test system BTK (Homo sapiens (Human), UniProt Q06187), entry "C=CC(=O)N1CCN(C(=O)c2cc(Sc3cnc(NC(=O)C4CC4)s3)c(C)cc2OC)C[C@H]1C"
Ans: 100 to 1000 nM

Q: Request: IC50, test system BTK (Homo sapiens (Human), UniProt Q06187), entry "C=CC(=O)N1CCN(C(=O)c2cc(Sc3cnc(NC(=O)C4CC4)s3)c(C)cn2)CC1"
Ans: ≥ 10000 nM

* * *

- Target desc: TXK (Homo sapiens (Human))
- Assay remarks: IC50 against TXK
- Assay type: biochemical
Value kind: IC50

>  <Molecule>
C=CC(=O)N1CCN(C(=O)c2cc(C(C)c3cnc(NC(=O)C4CC4)s3)c(C)cc2OC)CC1 (stereo not shown)

>  <IC50>
10 to 100 nM

$$$$

Q: Could you share which IC50 value was measured for "C=CC(=O)N1CCCN(C(=O)c2cc(Sc3cnc(NC(=O)C4CC4)s3)c(C)cc2OC)C[C@@H]1C" ?
Ans: 100 to 1000 nM

Q: Could you share which IC50 value was measured for "C=CC(=O)N1CCN(C(=O)c2cc(Sc3cnc(Nc4ccccn4)s3)c(C)cc2OC)[C@@H](C)C1" ?
Ans: < 10 nM

Q: Could you share which IC50 value was measured for "C=C(C)C(=O)N1CCCN(C(=O)c2cc(Sc3cnc(NC(=O)c4cccc(CN(C)C)c4)s3)c(C)cc2OC)CC1" ?
Ans: 1000 to 10000 nM

Q: Could you share which IC50 value was measured for "C=CC(=O)N1CCN(C(=O)c2cc(Sc3cnc(Nc4ccc(CN(C)C)cn4)s3)c(C)cc2OC)CC1" ?
Ans: < 10 nM

Q: Could you share which IC50 value was measured for "C=CC(=O)N1CCN(C(=O)c2cc(Sc3cnc(NC(=O)c4cccc(CN(C)C)c4)s3)c(C)cc2C)C[C@H]1CC" ?
Ans: 10 to 100 nM

* * *

Catalogue of IC50 readings, one per entry.
- Target desc: BTK (Homo sapiens (Human), UniProt Q06187)
- Assay remarks: IC50 against BTK
- Type: biochemical

>  <Molecule>
C=CC(=O)N1C[C@H]2CC[C@@H](C1)N2C(=O)c1cc(Sc2cnc(NC(=O)C3CC3)s2)c(C)cc1OC

>  <Reading>
< 10 nM

$$$$
>  <Molecule>
C=CC(=O)N1CCCN(C(=O)c2cc(Sc3cnc(NC(=O)C(C)C)s3)c(C)cc2OC)CC1

>  <Reading>
1000 to 10000 nM

$$$$

Q: Could you share which IC50 value was measured for "C=CC(=O)N1CCCN(C(=O)c2cc(Sc3cnc(NC(=O)C4CC4)s3)c(C)cc2OC)C[C@H]1C(C)C" ?
Ans: 100 to 1000 nM

Q: Could you share which IC50 value was measured for "C=CC(=O)N1CCN(C(=O)c2cc(Sc3cnc(NC(=O)c4cccnc4)s3)c(C)cc2OC)CC1" ?
Ans: 100 to 1000 nM

Q: Could you share which IC50 value was measured for "C=CC(=O)N1CCCN(C(=O)c2cc(Sc3cnc(Nc4ncccc4C)s3)c(C)cc2OC)C[C@H]1C" ?
Ans: 10 to 100 nM

Q: Could you share which IC50 value was measured for "C=CC(=O)N1CCN(C(=O)c2cc(Sc3cnc(NC(=O)c4ccncc4)s3)c(C)cc2OC)CC1" ?
Ans: 100 to 1000 nM

Q: Could you share which IC50 value was measured for "C=C(CN(C)C)C(=O)N1CCN(C(=O)c2cc(Sc3cnc(NC(=O)C4CC4)s3)c(C)cc2OC)CC1" ?
Ans: 1000 to 10000 nM

Q: Could you share which IC50 value was measured for "C=CC(=O)N1CCN(C(=O)c2cc(Sc3cnc(NC(=O)c4cnn(C)c4)s3)c(C)cc2OC)CC1" ?
Ans: 10 to 100 nM

Q: Could you share which IC50 value was measured for "C=CC(=O)N1CCN(C(=O)c2cc(Sc3cnc(NC(=O)c4ccc(CN(C)C)cc4)s3)c(C)cc2OC)CC1" ?
Ans: 10 to 100 nM

Q: Could you share which IC50 value was measured for C=CC(=O)N1CCN(C(=O)c2cc(Sc3cnc(NC(=O)c4ccc(N5CCN(C(=O)CCOCCOCCOCCOCCNC(=O)CCCCC6SCC7NC(=O)NC76)CC5)cc4)s3)c(C)cc2OC)CC1 (centres unmarked) ?
Ans: 10 to 100 nM

Q: Could you share which IC50 value was measured for "C=CC(=O)N1CCCN(C(=O)c2cc(CSc3cnc(NC(=O)C4CC4)s3)cc(C)c2C)CC1" ?
Ans: ≥ 10000 nM

* * *

- Target desc: UniProt Q08881
- Sequence (Q08881 whole entry): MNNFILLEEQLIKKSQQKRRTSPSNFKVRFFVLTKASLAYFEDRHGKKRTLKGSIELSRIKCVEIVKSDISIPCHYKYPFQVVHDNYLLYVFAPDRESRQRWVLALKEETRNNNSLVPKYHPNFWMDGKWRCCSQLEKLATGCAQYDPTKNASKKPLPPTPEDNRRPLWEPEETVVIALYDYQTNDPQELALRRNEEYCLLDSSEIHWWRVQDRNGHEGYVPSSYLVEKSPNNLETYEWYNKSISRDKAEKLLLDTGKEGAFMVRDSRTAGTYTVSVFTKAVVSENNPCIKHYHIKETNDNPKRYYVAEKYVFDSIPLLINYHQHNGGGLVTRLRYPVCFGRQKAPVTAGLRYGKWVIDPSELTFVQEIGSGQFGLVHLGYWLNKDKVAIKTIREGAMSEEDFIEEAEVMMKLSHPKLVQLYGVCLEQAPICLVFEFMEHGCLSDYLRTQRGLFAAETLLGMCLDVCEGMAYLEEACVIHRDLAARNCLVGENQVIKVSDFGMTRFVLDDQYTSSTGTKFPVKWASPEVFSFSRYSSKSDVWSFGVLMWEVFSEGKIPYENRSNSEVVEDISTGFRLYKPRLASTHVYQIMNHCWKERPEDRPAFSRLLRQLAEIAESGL
- Assay remarks: IC50 against ITK
- Assay type: biochemical
Value kind: IC50

Examples with their reported IC50 follow.
>  <Molecule>
C=CC(=O)N1CCN(C(=O)c2cc(Sc3cnc(NC(=O)C4CC4)s3)c(C)cc2OC)C[C@H]1CC

>  <Value kind>
IC50

>  <Reading>
< 10 nM

$$$$
>  <Molecule>
C=CC(=O)N1CCN(C(=O)c2cc(Sc3cnc(NC(=O)c4cccc(CN(C)C)c4)s3)c(C)cc2OC)C[C@H]1C#N

>  <Value kind>
IC50

>  <Reading>
< 10 nM

$$$$
>  <Molecule>
C=CC(=O)N1CCCN(C(=O)c2cc(Sc3cnc(NC(=O)C4CC4)s3)c(C)cc2OC)CC1

>  <Value kind>
IC50

>  <Reading>
< 10 nM

$$$$
>  <Molecule>
C=CC(=O)N1CCN(C(=O)c2cc(Sc3cnc(Nc4ncc(C)nc4C)s3)c(C)cc2C)CC1

>  <Value kind>
IC50

>  <Reading>
10 to 100 nM

$$$$
>  <Molecule>
C=CC(=O)N1CCCN(C(=O)c2cc(Sc3cnc(NC(=O)C4CCN(C)CC4)s3)c(C)cc2OC)CC1

>  <Value kind>
IC50

>  <Reading>
100 to 1000 nM

$$$$
>  <Molecule>
C=CC(=O)N1CCN(C(=O)c2cc(Cc3cnc(NC(=O)C4CC4)s3)c(C)cc2OC)CC1

>  <Value kind>
IC50

>  <Reading>
< 10 nM

$$$$

Q: Could you share which IC50 value was measured for "C=CC(=O)N1CCN(C(=O)c2cc(Sc3cnc(NC(C)=O)s3)c(C)cc2OC)C(C)(C)C1" ?
Ans: < 10 nM

Q: Could you share which IC50 value was measured for "C=CC(=O)N1CCN(C(=O)c2cc(Sc3cnc(NC(C)=O)s3)c(C)cc2OC)C[C@@H]1C" ?
Ans: 10 to 100 nM

Q: Could you share which IC50 value was measured for "C=CC(=O)N1CCN(C(=O)c2cc(Sc3cnc(NC(=O)CC)s3)c(C)cc2OC)[C@@H](C)C1" ?
Ans: < 10 nM

Q: Could you share which IC50 value was measured for "C=CC(=O)N1CCN(C(=O)c2cc(Sc3cnc(NC(=O)c4ccsc4)s3)c(C)cc2OC)CC1" ?
Ans: < 10 nM

* * *

- Target desc: TXK (Homo sapiens (Human), UniProt P42681)
- Sequence (P42681 whole entry, species assumed): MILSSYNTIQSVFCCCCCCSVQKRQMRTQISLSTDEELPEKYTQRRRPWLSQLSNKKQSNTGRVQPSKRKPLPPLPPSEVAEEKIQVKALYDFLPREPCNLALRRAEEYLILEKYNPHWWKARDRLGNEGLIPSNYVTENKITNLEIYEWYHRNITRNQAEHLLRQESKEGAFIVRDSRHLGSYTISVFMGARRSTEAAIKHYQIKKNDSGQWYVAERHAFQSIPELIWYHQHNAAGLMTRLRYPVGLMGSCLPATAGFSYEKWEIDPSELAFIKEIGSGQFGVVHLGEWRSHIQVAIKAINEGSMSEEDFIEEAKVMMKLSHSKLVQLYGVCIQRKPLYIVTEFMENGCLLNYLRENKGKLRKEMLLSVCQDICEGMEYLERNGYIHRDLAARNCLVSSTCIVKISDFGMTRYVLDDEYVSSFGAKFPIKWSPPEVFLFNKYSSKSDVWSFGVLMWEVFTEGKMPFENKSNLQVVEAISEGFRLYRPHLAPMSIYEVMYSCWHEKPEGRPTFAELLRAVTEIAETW
- Assay remarks: IC50 against TXK
- Format: biochemical
- Applied conditions: ratio of TXK IC50 to ITK IC50
Value kind: TXK/ITK

A: C=CC(=O)N1CCN(C(=O)c2cc(Sc3cnc(NC(C)=O)s3)c(C)cc2OC)[C@H](C)C1
B: C=CC(=O)N1CCN(C(=O)c2cc(Sc3cnc(NC(=O)C4CC4)s3)c(C)cc2OC)C[C@H]1C#N
C: C=C(C)C(=O)N1CCCN(C(=O)c2cc(Sc3cnc(NC(=O)c4cccc(CN(C)C)c4)s3)c(C)cc2OC)CC1
D: C=CC(=O)N1CC[C@H](N(C)C(=O)c2cc(Sc3cnc(NC(=O)C4CC4)s3)c(C)cc2OC)C1
Q: Sort ascending by TXK/ITK: all records listed above. Form entry: labels listed in requested order.
Ans: C, D, B, A
